System: K562
Assay: Cytotoxicity against human K562 cells assessed as inhibition of cell proliferation after 72 hrs by MTS assay
Format: functional, cell-based
Conditions: K562, 72 h
measured.attribute: IC50 (nM)
Field format: number, assumed nM, no unit text.

Examples with their reported IC50 follow.
>>> meas_value("C[C@H]1CCCC[C@@H]2[C@@H](CC(=O)O1)[C@@H](O)CC[C@@H]2O")
4
>>> meas_value("C[C@H]1CCCC[C@H]2C(=O)CC[C@H](O)[C@@H]2CC(=O)O1")
200
>>> meas_value("C[C@H]1CCCC[C@H]2C(=O)C=C[C@H](O)[C@@H]2CC(=O)O1")
20

For the compound shown here, C[C@H]1CCCC[C@H]2C(=O)C[C@H](O)[C@H](O)[C@@H]2CC(=O)O1 , give the reported IC50.
20
